assay: collision cross section of modified peptide (TIMS, N2, iRT-aligned); higher = larger / more extended gas-phase ion; details: charge state: 2; modification: hydroxyisobutyryl
Decide using collision cross section: a value greater than or equal to 400 Å² is Fulfilled, a smaller one is Not fulfilled.

Incoming: Assess whether reported collision cross section for ASNAAVKLAESK [_ASNAAVK(hydroxyisobutyryl)LAESK_] sits at 400 Å² or higher.
Outgoing: Not fulfilled

Incoming: Assess whether reported collision cross section for VGVEVPDVNIEGPEGKLK [_VGVEVPDVNIEGPEGK(hydroxyisobutyryl)LK_] sits at 400 Å² or higher.
Outgoing: Fulfilled

Incoming: Assess whether reported collision cross section for TFGKAAGPSLSHTSGGTQSK [_TFGK(hydroxyisobutyryl)AAGPSLSHTSGGTQSK_] sits at 400 Å² or higher.
Outgoing: Fulfilled

Incoming: Assess whether reported collision cross section for ITESVAETAQTIKK [_ITESVAETAQTIK(hydroxyisobutyryl)K_] sits at 400 Å² or higher.
Outgoing: Fulfilled

Incoming: Assess whether reported collision cross section for GSLEKGSPEDK [_GSLEK(hydroxyisobutyryl)GSPEDK_] sits at 400 Å² or higher.
Outgoing: Not fulfilled

Incoming: Assess whether reported collision cross section for SGKFTQQDIDEAK [_SGK(hydroxyisobutyryl)FTQQDIDEAK_] sits at 400 Å² or higher.
Outgoing: Fulfilled

Incoming: Assess whether reported collision cross section for TLDEILQEKK [_TLDEILQEK(hydroxyisobutyryl)K_] sits at 400 Å² or higher.
Outgoing: Not fulfilled

Incoming: Assess whether reported collision cross section for DASTLQSQKAEGTGDAK [_DASTLQSQK(hydroxyisobutyryl)AEGTGDAK_] sits at 400 Å² or higher.
Outgoing: Fulfilled

Incoming: Assess whether reported collision cross section for TTEETSKPK [_TTEETSK(hydroxyisobutyryl)PK_] sits at 400 Å² or higher.
Outgoing: Not fulfilled

====

experiment: collision cross section of modified peptide (TIMS, N2, iRT-aligned); higher = larger / more extended gas-phase ion; settings: charge state: 2; modification: Hydroxyproline
measured-attribute: collision cross section (Å²)
Note: unit Å² is implicit; provide only the numeric part.

Incoming: Provide one value: measured collision cross section of GEIGPPGPR [_GEIGPP(Hydroxyproline)GPR_]
Outgoing: 319.92

Incoming: Provide one value: measured collision cross section of GERGPPGPPGR [_GERGPP(Hydroxyproline)GPPGR_]
Outgoing: 333.05

Incoming: Provide one value: measured collision cross section of GERGVPGER [_GERGVP(Hydroxyproline)GER_]
Outgoing: 328.27

Incoming: Provide one value: measured collision cross section of PGPRGQR [_P(Hydroxyproline)GPRGQR_]
Outgoing: 294.67

====

assay: collision cross section of modified peptide (TIMS, N2, iRT-aligned); higher = larger / more extended gas-phase ion; details: charge state: 3; modification: Methyl (K)
measured-attribute: collision cross section (Å²)
Note: unit Å² is implicit; provide only the numeric part.

Incoming: Provide one value: measured collision cross section of FSAYIKNSNPALNDNLEK [_FSAYIK(Methyl (K))NSNPALNDNLEK_]
Outgoing: 508.45

Incoming: Provide one value: measured collision cross section of ASEALLKQLK [_ASEALLK(Methyl (K))QLK_]
Outgoing: 450.1

Incoming: Provide one value: measured collision cross section of SLFFGGKGAPLQR [_SLFFGGK(Methyl (K))GAPLQR_]
Outgoing: 448.66

Incoming: Provide one value: measured collision cross section of IISSIEQKEENK [_IISSIEQK(Methyl (K))EENK_]
Outgoing: 450.18

Incoming: Provide one value: measured collision cross section of LFVGGIKEDTEEHHLR [_LFVGGIK(Methyl (K))EDTEEHHLR_]
Outgoing: 545.41

Incoming: Provide one value: measured collision cross section of LLFSNTAAQKLR [_LLFSNTAAQK(Methyl (K))LR_]
Outgoing: 479.76

Incoming: Provide one value: measured collision cross section of VGLQVVAVKAPGFGDNR [_VGLQVVAVK(Methyl (K))APGFGDNR_]
Outgoing: 491.77

Incoming: Provide one value: measured collision cross section of SNEEGSEEKGPEVR [_SNEEGSEEK(Methyl (K))GPEVR_]
Outgoing: 481.38

Incoming: Provide one value: measured collision cross section of YEQEHAAIQDKLFQVAK [_YEQEHAAIQDK(Methyl (K))LFQVAK_]
Outgoing: 557.9

Incoming: Provide one value: measured collision cross section of LQDVSGQLSSSKK [_LQDVSGQLSSSK(Methyl (K))K_]
Outgoing: 465.49

Incoming: Provide one value: measured collision cross section of GFCFITYTDEEPVKK [_GFCFITYTDEEPVK(Methyl (K))K_]
Outgoing: 513.09

Incoming: Provide one value: measured collision cross section of SITHSTVGSKGEK [_SITHSTVGSK(Methyl (K))GEK_]
Outgoing: 466.28

Incoming: Provide one value: measured collision cross section of DSSPTTNSKLSALQR [_DSSPTTNSK(Methyl (K))LSALQR_]
Outgoing: 475.79

Incoming: Provide one value: measured collision cross section of ISSNFSSIIAEKLR [_ISSNFSSIIAEK(Methyl (K))LR_]
Outgoing: 507.3

Incoming: Provide one value: measured collision cross section of TTGFYSGFSEVAEKR [_TTGFYSGFSEVAEK(Methyl (K))R_]
Outgoing: 510.26

Incoming: Provide one value: measured collision cross section of GETASKLQSEISR [_GETASK(Methyl (K))LQSEISR_]
Outgoing: 463.3

Incoming: Provide one value: measured collision cross section of ISALQGKLSK [_ISALQGK(Methyl (K))LSK_]
Outgoing: 434.86

Incoming: Provide one value: measured collision cross section of DASTLQSQKAEGTGDAK [_DASTLQSQK(Methyl (K))AEGTGDAK_]
Outgoing: 487.49

Incoming: Provide one value: measured collision cross section of VDVEVPDVSLEGPEGKLK [_VDVEVPDVSLEGPEGK(Methyl (K))LK_]
Outgoing: 551.69

Incoming: Provide one value: measured collision cross section of DYSSGFGGKYGVQADR [_DYSSGFGGK(Methyl (K))YGVQADR_]
Outgoing: 489.11

Incoming: Provide one value: measured collision cross section of VDIDAPDVSIEGPDAKLK [_VDIDAPDVSIEGPDAK(Methyl (K))LK_]
Outgoing: 544.25

Incoming: Provide one value: measured collision cross section of GFALVGVGSEASSKK [_GFALVGVGSEASSK(Methyl (K))K_]
Outgoing: 496.87

Incoming: Provide one value: measured collision cross section of TPNLYIYSKK [_TPNLYIYSK(Methyl (K))K_]
Outgoing: 428.93

Incoming: Provide one value: measured collision cross section of ASAISIKLGSSK [_ASAISIK(Methyl (K))LGSSK_]
Outgoing: 438.5

Incoming: Provide one value: measured collision cross section of ATVASSTQKFQDLGVK [_ATVASSTQK(Methyl (K))FQDLGVK_]
Outgoing: 478.87

Incoming: Provide one value: measured collision cross section of VNVEAPDVNLEGLGGKLK [_VNVEAPDVNLEGLGGK(Methyl (K))LK_]
Outgoing: 541.64

Incoming: Provide one value: measured collision cross section of SDDESSQKDIK [_SDDESSQK(Methyl (K))DIK_]
Outgoing: 439.66

Incoming: Provide one value: measured collision cross section of TLQKQSVVYGGK [_TLQK(Methyl (K))QSVVYGGK_]
Outgoing: 446.7

Incoming: Provide one value: measured collision cross section of LLEEEDSKLK [_LLEEEDSK(Methyl (K))LK_]
Outgoing: 439.97

Incoming: Provide one value: measured collision cross section of IVFSGNLFQHQEDSKK [_IVFSGNLFQHQEDSK(Methyl (K))K_]
Outgoing: 529.21

Incoming: Provide one value: measured collision cross section of LTSLNVKYNNDK [_LTSLNVK(Methyl (K))YNNDK_]
Outgoing: 486.12

Incoming: Provide one value: measured collision cross section of LQAAYAGDKADDIQK [_LQAAYAGDK(Methyl (K))ADDIQK_]
Outgoing: 477.97

Incoming: Provide one value: measured collision cross section of LQLEIDQKK [_LQLEIDQK(Methyl (K))K_]
Outgoing: 429.39

Incoming: Provide one value: measured collision cross section of DDSFLGKLGGTLAR [_DDSFLGK(Methyl (K))LGGTLAR_]
Outgoing: 476.22

Incoming: Provide one value: measured collision cross section of IGNSYFKEEK [_IGNSYFK(Methyl (K))EEK_]
Outgoing: 450.33

Incoming: Provide one value: measured collision cross section of VQGGALEDSQLVAGVAFKK [_VQGGALEDSQLVAGVAFK(Methyl (K))K_]
Outgoing: 546.3

Incoming: Provide one value: measured collision cross section of AAINQKLIETGER [_AAINQK(Methyl (K))LIETGER_]
Outgoing: 471.88
